Item-by-item account of MIC
- test-details: Antibacterial activity against Clostridium difficile VIP 10463 ATCC 43255 by two fold serial dilution method
- Assay type: functional, Clostridium difficile ATCC 43255
- condition: Clostridioides difficile
Non-standard residues stand in square brackets, D forms with d. Residues, ends and D or L forms follow the SMILES beside them. ξ: configuration not given here. Ac6c = NC1(C(=O)O)CCCCC1; Ac5c = NC1(C(=O)O)CCCC1; ξOrn = NCCCC(N)C(=O)O
Reply with the number, then its unit.

>  <compound>
CC(=O)N[C@@H](CCCCN)C(=O)N[C@@H](CCCCN)C(=O)N[C@@H](CCCCN)C(=O)N[C@@H](CCCCN)C(=O)NCC(=O)N[C@@H](Cc1ccccc1)C(=O)NC1(C(=O)NCC(=O)NC2(C(=O)N[C@@H](CCCCN)C(=O)NC3(C(=O)NCC(=O)NC4(C(=O)N[C@@H](Cc5ccccc5)C(=O)NC5(C(=O)NCC(=O)NC6(C(=O)NCC(=O)N[C@@H](CCCCN)C(=O)NC7(C(N)=O)CCCCC7)CCCCC6)CCCCC5)CCCCC4)CCCCC3)CCCCC2)CCCCC1 (Ac-KKKKGF[Ac6c]G[Ac6c]K[Ac6c]G[Ac6c]F[Ac6c]G[Ac6c]GK[Ac6c]-NH2)

>  <MIC>
1.37 µM

$$$$

# MIC of CC(=O)NCC(=O)N[C@@H](Cc1ccccc1)C(=O)NC1(C(=O)NCC(=O)NC2(C(=O)N[C@@H](CCCCN)C(=O)NC3(C(=O)NCC(=O)NC4(C(=O)N[C@@H](Cc5ccccc5)C(=O)NC5(C(=O)NCC(=O)NC6(C(=O)NCC(=O)N[C@@H](CCCCN)C(=O)NC7(C(=O)N[C@@H](CCCCN)C(=O)N[C@@H](CCCCN)C(=O)N[C@@H](CCCCN)C(=O)N[C@@H](CCCCN)C(N)=O)CCCC7)CCCC6)CCCC5)CCCC4)CCCC3)CCCC2)CCCC1 (Ac-GF[Ac5c]G[Ac5c]K[Ac5c]G[Ac5c]F[Ac5c]G[Ac5c]GK[Ac5c]KKKK-NH2) = 1.43 µM

# MIC of CC(=O)NCC(=O)N[C@@H](Cc1ccccc1)C(=O)NC1(C(=O)NCC(=O)NC2(C(=O)NC(CCCN)C(=O)NC3(C(=O)NCC(=O)NC4(C(=O)N[C@@H](Cc5ccccc5)C(=O)NC5(C(=O)NCC(=O)NC6(C(=O)NCC(=O)NC(CCCN)C(=O)NC7(C(=O)NC(CCCN)C(=O)NC(CCCN)C(=O)NC(CCCN)C(=O)NC(CCCN)C(N)=O)CCCCC7)CCCCC6)CCCCC5)CCCCC4)CCCCC3)CCCCC2)CCCCC1 (some centres undefined) (Ac-GF[Ac6c]G[Ac6c][ξOrn][Ac6c]G[Ac6c]F[Ac6c]G[Ac6c]G[ξOrn][Ac6c][ξOrn][ξOrn][ξOrn][ξOrn]-NH2) = 5.67 µM

# MIC of CC(=O)NCC(=O)N[C@@H](Cc1ccccc1)C(=O)NC1(C(=O)NCC(=O)N2Cc3ccccc3CC2C(=O)N[C@H](CCCCN)C(=O)NC2(C(=O)NCC(=O)N3Cc4ccccc4CC3C(=O)N[C@H](Cc3ccccc3)C(=O)NC3(C(=O)NCC(=O)N4Cc5ccccc5CC4C(=O)NCC(=O)N[C@H](CCCCN)C(=O)N4Cc5ccccc5CC4C(=O)N[C@H](CCCCN)C(=O)N[C@H](CCCCN)C(=O)N[C@H](CCCCN)C(=O)N[C@H](CCCCN)C(N)=O)CCCCC3)CCCCC2)CCCCC1 (some centres undefined) = 2.58 µM
